# EXPERIMENT_NOTES: inhibitors of TNFa-induced NFkB p65 translocation, primary screen, imaging, HUVEC, MLSMR starter and 10KST1 sets (AID 438);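 also: compound added about 3h40 before a 20 min TNFalpha stimulation; signal is the nuclear over cytoplasmic p65 intensity ratio per well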
# TEST_SETTINGS: HUVEC TNFa-induced p65 nuclear translocation; at 2 µM, stronger effect = higher value, 0% TNFa-plus-vehicle, 100% no-TNFa wells
# inhibition per entry

MOLECULE: CCOC(=O)CSc1ncnc2c1cnn2-c1ccc(C)cc1
UNIT_ANNOTATION: %
inhibition: 2.4
//
MOLECULE: CC1CCCCN1C(=O)Cn1nnc(-c2cccnc2)n1 (stereo unspecified)
UNIT_ANNOTATION: %
inhibition: 8
//
MOLECULE: COc1cccc(/C=N/n2c(-c3ccco3)nc3ccccc3c2=O)c1
UNIT_ANNOTATION: %
inhibition: -0.9
//
MOLECULE: C=CCn1c(SCC(=O)Nc2ccccc2OC)nnc1-c1ccccn1
UNIT_ANNOTATION: %
inhibition: 9.1
//
MOLECULE: Cc1cnc(C(=O)OCC(=O)Nc2ccc(Cl)cc2Cl)cn1
UNIT_ANNOTATION: %
inhibition: 8.7
//
MOLECULE: COc1ccc(CCNC(=O)c2cnc3scc(C)n3c2=O)cc1OC
UNIT_ANNOTATION: %
inhibition: -5.3

----------
# EXPERIMENT_NOTES: reduction of polyQ htt aggregates in cells – imaging, exon1htt(103Q)mCFP cells, high-content imaging, primary screen (AID 483);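 also: compound exposure lasted 3 days before fixation; percent of the per-plate median nuclei count of sample wells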
# TEST_SETTINGS: exon1htt(103Q)mCFP cell line, aggregate imaging, at 2 µM; measured here: cell count, toxicity
Reported nuclei count values for a set of compounds

COMPOUND: Cc1cc(NC(=O)COc2cccc(C)c2C)no1
nuclei count / %: 104

COMPOUND: Oc1ccc2ccccc2c1CN1CCN(c2ccccc2F)CC1
nuclei count / %: 107

COMPOUND: COc1cc2c(c(OC)c1)C(c1ccncc1)CC(=O)N2 (stereo not drawn)
nuclei count / %: 111

COMPOUND: Cc1c(C(=O)NCc2ccccc2)oc2c1C(=O)CCC2
nuclei count / %: 101

COMPOUND: O=C(NCC1CCCO1)c1cccc(N2CCCC2=O)c1 (stereo not drawn)
nuclei count / %: 88.8

COMPOUND: CC1CCN(S(=O)(=O)c2ccc3[nH]cc(C(=O)NCCN4CCOCC4)c(=O)c3c2)CC1
nuclei count / %: 104

COMPOUND: CN(C)S(=O)(=O)c1ccc(C(=O)NCc2cccs2)cc1
nuclei count / %: 105

COMPOUND: COc1ccc(NC(=O)C2CCCN(S(=O)(=O)c3cccc4cccnc34)C2)cc1OC (stereo not drawn)
nuclei count / %: 104

COMPOUND: CCc1ccccc1N1CC23C=CC(O2)C(C(=O)O)C3C1=O (stereo not drawn)
nuclei count / %: 103

COMPOUND: CC1CC(C)CN(CCCNC(=O)c2ccc3c(c2)NC(=O)C(N2CCCCC2)S3)C1 (stereo not drawn)
nuclei count / %: 101

COMPOUND: O=C1C2CC=C(Cl)CC2C(=O)N1c1ncn[nH]1 (stereo not drawn)
nuclei count / %: 98.3

COMPOUND: Fc1ccccc1C(c1nnnn1Cc1ccc2c(c1)OCO2)N1CCN(Cc2ccccc2)CC1 (stereo not drawn)
nuclei count / %: 112

COMPOUND: Cc1ccc(S(=O)(=O)N2C(=O)CCC2C(=O)Nc2ccc3c(c2)OCCO3)cc1 (stereo not drawn)
nuclei count / %: 101

COMPOUND: CCc1c(C)c2c(C)nn(-c3ccccc3)c2[nH]c1=O
nuclei count / %: 94.5

COMPOUND: Cc1ccc(S(=O)(=O)NC(=O)c2cc(C)n(CCCn3ccnc3)c2C)cc1
nuclei count / %: 92.3

COMPOUND: Cc1ccc(N2C(=O)c3ccccc3C2Nc2cccnc2)nc1 (stereo not drawn)
nuclei count / %: 92.8

COMPOUND: FC(F)(F)c1cc(-c2ccccc2)nc(N2CCCCC2)n1
nuclei count / %: 100

COMPOUND: COc1ccc(OC)c(NC(=O)CCNS(=O)(=O)c2cccs2)c1
nuclei count / %: 81.4

COMPOUND: CCCC1c2ccc(C)n2CCN1C(=O)Nc1ccccc1Cl (stereo not drawn)
nuclei count / %: 100

COMPOUND: Cc1c(NC(=O)CCc2ccc(S(=O)(=O)N3CCOCC3)cc2)c(=O)n(-c2ccccc2)n1C
nuclei count / %: 119

COMPOUND: COC(=O)[C@H](C)NC(=O)Nc1cccc(C(F)(F)F)c1
nuclei count / %: 85.5

COMPOUND: N#Cc1nc(-c2ccco2)oc1NCCc1ccccc1
nuclei count / %: 88.8

COMPOUND: O=S(=O)(NCc1ccccc1)c1ccc2c(c1)OCCO2
nuclei count / %: 100

Where these numbers come from: PubChem BioAssay
